Assay: solvent given as SMILES
Settings: in ClCCl
Property: fluorescence lifetime; scope: individual compounds
Give the value in ns but do not write ns after it.

COc1ccc(Nc2nc(/C=C/c3ccccc3)[n+]([O-])c3c2CCCC3)cc1 = 8.2

Tell us which fluorescence lifetime value is on record for ClP1(Cl)=NP(Cl)(Cl)=NP(Cl)(Oc2ccc3ccc4cccc5ccc2c3c45)=N1 (stereo not drawn)
3.29

Answer with the recorded fluorescence lifetime for the compound listed here: "C(=C\c1cc(/C=C/c2ccc(-n3c4ccccc4c4ccccc43)cc2)cc(/C=C/c2ccc(-n3c4ccccc4c4ccccc43)cc2)c1)/c1ccc(-n2c3ccccc3c3ccccc32)cc1"
3.39

====

Assay: solvent given as SMILES
Settings: in ClCCl
1.0 means recorded fluorescence lifetime is 0.9 ns or above; 0.0 means it is below 0.9 ns.

Determine whether measured fluorescence lifetime meets or exceeds 0.9 ns for "CC(C)(C)c1cc(-n2c(-c3ccc(C(=C(c4ccccc4)c4ccccc4)c4ccccc4)cc3)cc3c2cc(-c2ccc(C(=C(c4ccccc4)c4ccccc4)c4ccccc4)cc2)n3-c2cc(C(C)(C)C)cc(C(C)(C)C)c2)cc(C(C)(C)C)c1"
0.0

Test whether the compound "Cc1c(C(=O)c2ccccc2)c2ccc3cccc4c5cccc6ccc1c(c65)c2c34" records fluorescence lifetime of 0.9 ns or higher.
1.0

====

log10 fluorescence lifetime listing for selected molecules.
Assay: solvent given as SMILES
Settings: in c1ccccc1
Use the decimal logarithm of fluorescence lifetime (ns).

Record excerpt, results attached:
CN(C)c1ccc(C#Cc2ccc(C#Cc3ccc(C#Cc4ccccc4C#N)cc3C#N)cc2C#N)cc1 = 0.24
Nc1cccc2c1-c1ccccc1C2=O = 0.97
CN(C)c1ccc2nc(-c3ccc(C(=O)O)cc3)sc2c1 = 0.40
COc1ccc(-c2nc3ccccc3oc2=O)cc1 = 0.40
Cc1ccc(-c2c3ccc([nH]3)c3nc(c(-c4ccc(C#N)cc4)c4ccc([nH]4)c4ccc([nH]4)c(-c4ccc(C)cc4)c4ccc2o4)C=C3)cc1 = 0.77
O=C1OC(=O)c2ccc(N(c3ccccc3)c3ccc4ccc5cccc6ccc3c4c56)c3cccc1c23 = 0.07
COc1cc(-c2cc(-c3ccc(C)cc3)nc3c(C#N)c(N4CCCC4)nc(N)c23)cc(OC)c1OC = 1.10
Cc1ccc(-c2cc(-c3ccccc3)c3c(N)nc(N4CCCC4)c(C#N)c3n2)cc1 = 1.10

Return reported log10 fluorescence lifetime. Input molecule: "O=C1c2ccccc2-c2ccccc21"
0.45

Provide log10 fluorescence lifetime value for the following molecule: "Nc1cccc2c1C(=O)c1ccccc1-2"
0.15

Item "O=C(O)COc1ccc2[nH]c3c(c2c1)CCCC3=O" : provide log10 fluorescence lifetime
-0.20

Identify measured log10 fluorescence lifetime corresponding to "Nc1ccccc1C(=O)O"
0.80

Quote log10 fluorescence lifetime reported for "Cc1nc2c(ccc3ccccc32)oc1=O" please.
0.18

Complete the entry with log10 fluorescence lifetime for "Nc1ccc2c(c1)-c1ccccc1C2=O"
1.04

Note log10 fluorescence lifetime for the molecule shown: "C#CCNC1=C2C=CC=[N+]2[B-](F)(F)n2cccc21"
0.80

Input "CCC(=O)c1ccc2cc(N(C)C)ccc2c1" , output reported log10 fluorescence lifetime.
0.52

State its log10 fluorescence lifetime for this molecule: "Cc1ccc(-c2ccc(/C=C/c3cccn3C)cn2)nc1"
-0.29

====

Assay: solvent given as SMILES
Settings: in CCOC(C)=O
Classification field: y = fluorescence lifetime at or over 0.9 ns; n = fluorescence lifetime under 0.9 ns.

Worked cases, answers included:
CC1=[N+]2C(=C(c3ccccc3C)c3ccc(C)n3[B-]2(F)F)C=C1c1cc2n(c1)[B-](F)(F)[N+]1=CC=CC1=C2c1c(C)cc(C)cc1C = n
O=C1c2ccccc2-c2cccc(O)c21 = y
c1ccc2c(c1)CCc1c-2cnc2c1-c1ccccc1CC2 = y

# check: fluorescence lifetime of "COc1cc(N(c2ccc(C=C(C#N)C#N)c(OC)c2)c2ccc(C=C(C#N)C#N)c(OC)c2)ccc1C=C(C#N)C#N" is greater than or equal to 0.9 ns
n

For this compound, is measured fluorescence lifetime 0.9 ns or higher? "COc1nc(Nc2ccc3c4cccc5cccc(c6cccc2c63)c54)nc(OC)n1"
y

Evaluate "OCc1cc2c(cc3ccc4cccc5ccc2c3c45)[nH]1" : fluorescence lifetime at minimum 0.9 ns?
y

Quick check: does "CC1=CC(C)=[N+]2C1=Cc1c3ccccc3c(C#Cc3ccc(F)cc3)n1[B-]2(F)F" have fluorescence lifetime greater than or equal to 0.9 ns?
y

Hi team, for "O=C(O)c1ccccc1Nc1cccc(C(F)(F)F)c1" , is the recorded fluorescence lifetime at or above 0.9 ns?
y

Does the compound "c1ccc2cc(-n3cnc4ccccc43)ccc2c1" have recorded fluorescence lifetime that is 0.9 ns or more?
y

fluorescence lifetime >= 0.9 ns for "Nc1ccc2c3cccc4cccc(c5cccc1c52)c43" ?
y

Is reported fluorescence lifetime greater than or equal to 0.9 ns here: "CN(C)c1ccc(/C=C/c2nc3c4ccccc4c4ccccc4c3[nH]2)cc1"
n

Check the entry "C#CCN1C(=O)/C(=C/c2cc(OC(C)C)ccc2OC(C)C)N=C1C" : does fluorescence lifetime equal or exceed 0.9 ns?
y

Could you verify whether the entry "C(=C\c1ccc(N(c2ccc(/C=C/c3ccc(N(c4ccccc4)c4ccccc4)cc3)cc2)c2ccc(/C=C/c3ccc(/C=C/c4ccc(N(c5ccc(/C=C/c6ccc(N(c7ccccc7)c7ccccc7)cc6)cc5)c5ccc(/C=C/c6ccc(N(c7ccccc7)c7ccccc7)cc6)cc5)cc4)c4nsnc34)cc2)cc1)/c1ccc(N(c2ccccc2)c2ccccc2)cc1" shows fluorescence lifetime of no less than 0.9 ns?
y

Is fluorescence lifetime for "Cc1ccc(C2=C3C=C(I)C=[N+]3[B-](F)(F)n3c2cc(I)c3I)cc1" at or above 0.9 ns?
n

Is it the case that "c1ccc2c(-n3c4ccccc4c4ccccc43)cccc2c1" has fluorescence lifetime reaching or exceeding 0.9 ns?
y

====

Assay: solvent given as SMILES
Conditions: in C1CCCCC1
Label NO if fluorescence lifetime falls below 1 ns; label YES in every other case.

Worked examples, 5 compounds total:
Nc1cccc2c1C(=O)c1ccccc1-2 = NO
COc1cccc2c1-c1ccccc1C2=O = YES
CN(C)c1c2ccccc2cc2ccccc12 = YES
COc1ccc(C#Cc2ccc(C#Cc3ccc(P(=O)(c4ccccc4)c4ccccc4)cc3)cc2)cc1 = NO
Cc1cc2ccc(-c3cccc4cccc(-c5ccc6cc(C)c(=O)oc6c5)c34)cc2oc1=O = NO

Decide: fluorescence lifetime of "CN(C)c1ccc2nc(-c3ccc(C=O)cc3)sc2c1" >= 1 ns?
YES

Could you please find out whether "CN(C)c1ccc2nc(-c3ccccc3)sc2c1Cl" has fluorescence lifetime that meets 1 ns or exceeds it?
NO

// inclusive: fluorescence lifetime at least 1 ns? input: "Nc1cccc2c1-c1ccccc1C2=O"
YES

For this compound, is measured fluorescence lifetime 1 ns or higher? "Nc1ccc2c3cccc4cccc(c5cccc1c52)c43"
YES

// inclusive: fluorescence lifetime at least 1 ns? input: "Cc1nn(-c2ccccc2)c(C2=NN(c3ccc(Br)cc3)[C@@H](c3ccccc3)[C@@H]2c2ccccc2)c1C#N"
YES

Item "CC1=[N+]2C(=C(c3cccs3)c3ccc(C)n3[B-]2(F)F)C=C1c1cc2n(c1)[B-](F)(F)[N+]1=CC=CC1=C2c1c(C)cc(C)cc1C" with fluorescence lifetime of 1 ns or above?
YES

====

Experiment: solvent given as SMILES
Conditions: in CN(C)C=O
Please assign a class to every record based on measured fluorescence lifetime, with ranges Low = under 2 ns, Medium = from 2 ns up to 4 ns, High = 4 ns and over

// known answers, use as guide
CN(C)c1ccc(C#Cc2ccc(C#Cc3ccc(C#Cc4ccccc4C#N)cc3C#N)cc2C#N)cc1 = Low
O=C1c2ccccc2-c2ccc(N3CCN(c4ccccc4)CC3)c3cccc1c23 = Low
C1=Cc2nc1c(-c1cccs1)c1ccc([nH]1)c(-c1cccs1)c1nc(c(-c3cccs3)c3ccc([nH]3)c2-c2cccs2)C=C1 = Medium
CCCCCCCCC1(CCCCCCCC)c2ccccc2-c2ccc(N(c3ccc(-n4c5ccccc5c5ccccc54)cc3)c3ccc4c(c3)C(CCCCCCCC)(CCCCCCCC)c3ccccc3-4)cc21 = Low
CC1=CC(C)=[N+]2C1=Cc1c3ccccc3c(C#Cc3ccc(F)cc3)n1[B-]2(F)F = High
CCN(CC)c1ccc2cc3ccc(=[N+](CC)CC)cc-3oc2c1 = Medium
CCCCCCOc1ccc(N(c2ccc(OCCCCCC)cc2)c2ccc(-c3sc(-c4ccc(N(c5ccc(OCCCCCC)cc5)c5ccc(OCCCCCC)cc5)cc4)c4nc(-c5ccc(OC)cc5)c(-c5ccc(OC)cc5)nc34)cc2)cc1 = Low
CC1=CC(C)=[N+]2C1=Cc1c3ccccc3c(C#Cc3ccccc3)n1[B-]2(F)F = High

Lab log: NS(=O)(=O)c1ccc(N2N=C(c3ccc(O)cc3)CC2c2ccc([N+](=O)[O-])cc2)cc1 (configuration not stated) — assign fluorescence lifetime category
Medium

Each compound maps to one class by fluorescence lifetime. Which class for "C#CCN1C(=O)/C(=C/c2cc(OC(C)C)ccc2OC(C)C)N=C1C" ?
Medium

For the record "O=C([O-])c1ccccc1C1=c2cc3c4c(c2Oc2c1cc1c5c2CCCN5CCC1)CCC[N+]=4CCC3" , report the class its fluorescence lifetime corresponds to.
High

src = the Deep4Chem optical property database
